Numbers sourced from paper PMC11934925.

# assay-target: T1, FLI1 276-375 N329E/D333G (UniProt Q01543 276-375, N329E;D333G;F362A)
# T1 sequence: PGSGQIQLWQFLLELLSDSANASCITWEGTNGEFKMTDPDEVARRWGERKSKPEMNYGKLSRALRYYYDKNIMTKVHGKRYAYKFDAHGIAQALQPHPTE
# method: fluorescence anisotropy
quantity: Kd
Please don't drop the unit; write it after the number.

**Query** # query: Kd of entry 1site_weak (dsDNA) DNA 1: TTGAAGGAAGAG DNA 2: CTCTTCCTTCAA
**Result** 126 nM
